MEASURED TARGET: full-length human PKCι (Homo sapiens)
Construct: Recombinant, full-length human PKCι expressed in Sf21 insect cells is also commercially available
Sequence (P41743 1-596): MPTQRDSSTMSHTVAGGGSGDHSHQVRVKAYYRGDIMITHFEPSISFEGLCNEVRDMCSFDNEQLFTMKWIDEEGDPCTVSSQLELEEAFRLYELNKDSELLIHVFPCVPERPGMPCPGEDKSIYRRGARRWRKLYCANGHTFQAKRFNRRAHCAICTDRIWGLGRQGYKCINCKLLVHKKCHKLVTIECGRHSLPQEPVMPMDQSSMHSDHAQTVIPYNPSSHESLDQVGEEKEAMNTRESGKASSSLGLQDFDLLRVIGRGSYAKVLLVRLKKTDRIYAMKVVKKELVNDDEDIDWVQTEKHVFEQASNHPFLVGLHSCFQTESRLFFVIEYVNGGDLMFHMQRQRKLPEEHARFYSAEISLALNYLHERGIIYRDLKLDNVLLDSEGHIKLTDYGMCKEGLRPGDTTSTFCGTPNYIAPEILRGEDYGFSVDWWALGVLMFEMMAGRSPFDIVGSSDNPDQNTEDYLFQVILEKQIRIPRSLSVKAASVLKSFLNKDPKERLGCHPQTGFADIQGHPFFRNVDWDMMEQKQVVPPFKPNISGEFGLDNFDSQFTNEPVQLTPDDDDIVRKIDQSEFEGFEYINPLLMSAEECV
METHOD NOTES: PKCι IC50 IMAP assay, full-length PKCι at 150 μM ATP
CONDITION DESCRIPTION: read-out: IC50 in IMAP assay against full length PKCi at 150 μM ATP
pIC50: −log10 of the molar value.
Please go through the items and note down their pIC50.

Give pIC50 (full-length human PKCι (Homo sapiens)) of the following compound: C[C@@H](Nc1cc(-c2nc(N3CCNC(C)(C)C3)c3c(C4CC4)cncc3n2)ccn1)C1CCCCC1
> 7.00

Request: COc1cncc2nc(-c3ccnc(NC4CCCC4)c3)nc(N3CCNCC3)c12
> 7.00

Request: c1cc(-c2nccc3c(N[C@@H]4CCNC4)nc(N4CCOCC4)nc23)[nH]n1
5.00 to 6.00

Request: COc1cncc2nc(-c3ccnc(Nc4ccccc4)c3)nc(N3CCC(F)(F)CC3)c12
4.40 to 5.00

Request: O=C(CC(F)(F)F)Nc1cc(-c2nc(N3CCNCC3)c3c(C4CC4)cncc3n2)ccn1
> 7.00

Request: N[C@H](CNc1nc(-c2ccncc2)nc2c(-c3ccsc3)nccc12)Cc1ccccc1
6.00 to 7.00

Request: c1cc(-c2nc(N3CCNCC3)c3c(C4CC4)cncc3n2)c2cc([C@@H]3C[C@H]4CC[C@@H]3O4)[nH]c2n1 (racemic)
> 7.00

Request: COc1cncc2nc(-c3ccnc(NC(=O)Cc4cccc(C#N)c4)c3)nc(N3CCNCC3)c12
> 7.00

Request: CN(c1nc(-c2ccnc(Nc3c(F)cccc3F)c2)nc2cncc(C3CC3)c12)C1CCNC1 (stereo not drawn)
> 7.00

Request: CC1(C)CN(c2nc(-c3ccnc(Nc4ccn(CC(F)(F)F)n4)c3)nc3cncc(C4CC4)c23)CCN1
> 7.00

Request: COc1cncc2nc(-c3ccncc3)nc(NC[C@H](Cc3ccccc3)N(C)C)c12
5.00 to 6.00

Request: N[C@H](CNc1nc(-c2ccncc2)nc2cnccc12)Cc1ccccc1
> 7.00

Request: Fc1ccc(C2(c3cc4c(-c5nc(N6CCNCC6)c6c(C7CC7)cncc6n5)ccnc4[nH]3)CC2)cc1
> 7.00

Request: N[C@H](CNc1nc(-c2ccncc2)nc2c(Nc3ncccn3)nccc12)Cc1ccccc1
5.00 to 6.00

Request: N#Cc1ccc(Nc2cc(-c3nc(N4CCNCC4)c4c(C5CC5)cncc4n3)ccn2)cc1F
6.00 to 7.00

Request: CC(=O)N[C@H](CNc1nc(-c2ccncc2)nc2cnccc12)Cc1ccccc1
4.40 to 5.00

Request: FC(F)(F)CN1CCC(Nc2cc(-c3nc(N4CCNCC4)c4c(C5CC5)cncc4n3)ccn2)CC1
> 7.00

Request: COc1cncc2nc(-c3ccnc(Nc4ccccc4)c3)nc(N3CCN4C(=O)OC[C@H]4C3)c12
6.00 to 7.00
